Kindly supply the reported pKi values for the records listed here.
- Target Entity: rat orexin 1 receptor (Rattus norvegicus)
- Protocol Notes: Rat orexin 1 receptor radioligand binding
- Condition Details: rat orexin 1 receptor radioligand binding; averages of 2-20 runs; read-out: rOX1 Ki
One number for each entry, as −log10 of the molar value.

Compound: C[C@H]1[C@H](Oc2cnc(C(F)(F)F)cn2)CCCN1C(=O)c1cccc(F)c1-n1nccn1
pKi: 6.93
//
Compound: Cc1cnc(C(=O)N2CCC[C@@H](Nc3ccc(C(F)(F)F)cn3)[C@@H]2C)c(-n2nccn2)c1
pKi: 7.92
//
Compound: COc1ccc(C(=O)N2CCC[C@@H](Nc3ccc(C(F)(F)F)cn3)[C@@H]2C)c(Cl)n1 (relative stereo)
pKi: 5.96

Which pKi value belongs to Cc1noc(-c2cc(F)ccc2C(=O)N2CCC[C@@H](Nc3ccc(C(F)(F)F)cn3)[C@@H]2C)n1 (relative stereo) ?
7.59

---

Kindly supply the reported pKi values for the records listed here.
- Target Entity: rat orexin 1 receptor (Rattus norvegicus)
- Protocol Notes: Rat orexin 1 receptor radioligand binding
Structures can show the parent of a compound that is named as a salt.
One number for each entry, as −log10 of the molar value.

Compound: Cc1ccc(-c2ncco2)c(C(=O)N2CCC[C@@H](Nc3ccc(C(F)(F)F)cn3)[C@@H]2C)n1 (racemic) [Example 22, hydrochloride]
Target Entity: rat orexin 1 receptor (Rattus norvegicus)
pKi: 7.44

Then there is this compound:
Which pKi value belongs to Cc1ccc(-c2ncco2)c(C(=O)N2CCC[C@@H](Nc3ccc(C(F)(F)F)cn3)[C@@H]2C)n1 [Example 25, hydrochloride] ?
7.92

---

- Target Entity: rat orexin 1 receptor (Rattus norvegicus, UniProt P56718)
- Protocol Notes: Rat orexin 1 receptor radioligand binding
- Condition Details: rat orexin 1 receptor radioligand binding; averages of 2-20 runs; read-out: rOX1 Ki
Measured Endpoint: pKi
One number for each entry, as −log10 of the molar value.

Compound: C[C@H]1[C@H](Oc2ccc(C(F)(F)F)cn2)CCCN1C(=O)c1ccc(F)cc1-n1nccn1 [Example 147]
pKi: 7.30

State recorded pKi for all listed compounds.
1. Cc1cnc(C(=O)N2CCC[C@@H](Oc3cnc(C(F)(F)F)cn3)[C@@H]2C)c(-n2nccn2)c1 [Example 105]
2. Cc1cnc(-n2nccn2)c(C(=O)N2CCC[C@@H](Oc3ccc(C(F)(F)F)cn3)[C@@H]2C)c1 [Example 149]
3. COc1ccc(C(=O)N2CCC[C@@H](Nc3ncc(Cl)cn3)[C@@H]2C)c(-n2nccn2)c1 (relative stereo) [Example 185]

[6.72, 7.62, 6.59]

---

- Target Entity: human orexin 1 receptor (Homo sapiens)
- Protocol Notes: Human orexin 1 receptor radioligand binding
- Condition Details: human orexin 1 receptor radioligand binding; averages of 2-20 runs; read-out: hOX1 Ki
Kindly supply the reported Ki values for the records listed here.
One number for each entry, in nM.

Example molecules with recorded Ki:
Molecule: Cc1ccc(-c2ncccn2)c(C(=O)N2CCC[C@@H](Oc3ncc(C(F)(F)F)cc3F)[C@@H]2C)n1
Endpoint Value: 45
--
Molecule: C[C@H]1[C@H](Oc2cnc(C(F)(F)F)cn2)CCCN1C(=O)c1ccccc1-c1ncccn1
Endpoint Value: 25
--
Molecule: C[C@H]1[C@H](Oc2ccc(C(F)(F)F)cn2)CCCN1C(=O)c1cc(F)ccc1-c1ncccn1
Endpoint Value: 18
--
Molecule: Cc1cnc(C(=O)N2CCC[C@@H](N(C)c3nc4ccccc4o3)[C@@H]2C)c(-n2nccn2)c1 (relative stereo)
Endpoint Value: 39

State recorded Ki for all listed molecules.
1. C[C@H]1[C@H](Nc2cnc(C(F)(F)F)cn2)CCCN1C(=O)c1ccc(F)cc1-c1ncco1 (relative stereo)
2. Cc1cnc(-n2nccn2)c(C(=O)N2CCC[C@@H](Oc3ccc(C(F)(F)F)cn3)[C@@H]2C)c1
3. C[C@H]1[C@H](Oc2ccc(C(F)(F)F)cn2)CCCN1C(=O)c1c(F)cccc1-c1ncccn1

34
18
132
